Biological target: Nuclear receptor ROR-gamma (Mus musculus)
Experiment: qHTS for inhibitors of ROR gamma transcriptional activity; further: nearly all actives have a fitted effect of over 60% in size
Conditions: Drosophila S2 Gal4-RORgamma UAS-luciferase reporter, 20 h; series mostly up to 53.6 µM
In all, about 310,000 compounds went through this assay and about 17,000 (5.5%) were called active. Another 11% or so got no clear call; they are omitted. The call rests on the fitted dose curve; in most records, active means well fitted inhibition curve with a large enough effect; inconclusive means small, poorly fitted or top-dose-only effect, or effect the other way; inactive means no such curve, though single readings can be large or run the other way. The sample as a whole holds a higher share of actives than the screen did.
Write down the outcome that applies. Available outcomes: 1 = active, -1 = inactive

## Input Name the outcome recorded for CCn1c(Cc2ccccc2)nnc1SCc1nc2ccccc2c(=O)[nH]1 in the assay.
## Output -1

## Input What do we get for Cc1nn(C)c(Cl)c1CN1CCC(Oc2ccc(C(=O)N3CCCC3)cc2)CC1 ?
## Output -1

## Input What do we get for O=C(c1ccco1)N(Cc1nc2ccccc2c(=O)[nH]1)C1CCCC1 ?
## Output 1

## Input What do we get for CCN(CC(=O)Nc1ccc(Cl)c(S(=O)(=O)N(C)C)c1)Cc1nc2ccccc2c(=O)[nH]1 ?
## Output 1

## Input What do we get for O=S(=O)(c1ccccc1)N(Cc1cccc(F)c1)c1ccccc1 ?
## Output -1

## Input What do we get for O=C(O)C1CCCN1C1=NS(=O)(=O)c2ccccc21 (stereo unspecified) ?
## Output -1

## Input What do we get for CCCC(=O)N(CCc1ccccc1)Cc1nc2ccccc2c(=O)[nH]1 ?
## Output -1

## Input What do we get for CCOCc1nnc(NC(=O)CSc2ccc(C)cc2)s1 ?
## Output -1

## Input What do we get for CN(C)S(=O)(=O)c1cc(NC(=O)CN2C(=O)NC3(CCCc4ccccc43)C2=O)ccc1Cl (stereo unspecified) ?
## Output -1

## Input What do we get for COc1ccc(-n2cnnc2SCC(=O)Nc2cccc(S(N)(=O)=O)c2)cc1 ?
## Output -1

## Input What do we get for O=C(N/C(=C\c1ccc([N+](=O)[O-])cc1)C(=O)N1CCOCC1)c1cccc(Br)c1 ?
## Output -1

## Input What do we get for S=c1[nH]nc(-c2ccc(Cl)cc2)n1CC1CCCO1 (stereo unspecified) ?
## Output 1

## Input What do we get for Cc1ccc(NS(=O)(=O)c2ccc(-c3ccc(=O)[nH]n3)o2)c(C)c1 ?
## Output -1

## Input What do we get for C/C(=N\NC(=O)Cc1ccccc1[N+](=O)[O-])c1cccnc1 ?
## Output -1

## Input What do we get for CC(C)=C(NC(=O)c1ccco1)C(=O)NCCc1nc2ccccc2[nH]1 ?
## Output -1

## Input What do we get for CCNCc1cc2cc(C)ccc2[nH]c1=O ?
## Output -1

====

Molecular target: Nuclear receptor ROR-gamma (Mus musculus) (UniProt P51450)
Sequence (P51450 whole entry, looked up): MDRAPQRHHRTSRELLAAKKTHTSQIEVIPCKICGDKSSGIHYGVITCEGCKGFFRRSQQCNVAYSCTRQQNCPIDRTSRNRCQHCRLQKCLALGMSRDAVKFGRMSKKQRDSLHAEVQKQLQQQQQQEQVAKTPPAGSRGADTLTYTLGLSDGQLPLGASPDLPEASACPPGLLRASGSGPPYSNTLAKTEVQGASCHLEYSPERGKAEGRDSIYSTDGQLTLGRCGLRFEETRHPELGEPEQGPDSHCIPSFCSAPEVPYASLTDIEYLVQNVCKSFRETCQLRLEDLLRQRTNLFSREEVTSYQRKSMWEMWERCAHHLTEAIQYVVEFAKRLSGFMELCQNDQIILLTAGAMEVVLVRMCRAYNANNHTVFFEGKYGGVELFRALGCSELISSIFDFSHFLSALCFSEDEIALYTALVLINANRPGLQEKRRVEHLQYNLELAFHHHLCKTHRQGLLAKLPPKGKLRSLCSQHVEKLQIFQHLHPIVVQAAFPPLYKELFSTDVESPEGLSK
Assay: qHTS for inhibitors of ROR gamma transcriptional activity; further: nearly all actives have a fitted effect of over 60% in size
Settings: Drosophila S2 Gal4-RORgamma UAS-luciferase reporter, 20 h; series mostly up to 53.6 µM
Screen size: about 310,000 compounds; about 17,000 (5.5%) were called active. Roughly 11% stayed inconclusive and do not appear here. Calls follow the shape of the dose curve; as a rule, active = well fitted inhibition curve with a large enough effect; inconclusive = small, poorly fitted or top-dose-only effect, or effect the other way; inactive = no such curve, though single readings can be large or run the other way. The sample as a whole holds a higher share of actives than the screen did.
Write down the outcome that applies. Available outcomes: active, inactive

Worked examples follow.
| compound | category |
| --- | --- |
| CCOc1ccc(C(=O)Nc2cccc(SC)c2)cc1 | inactive |
| CC(=O)N1c2ccc(S(=O)(=O)N3CCCC(C(=O)Nc4cccc(Cl)c4)C3)cc2CC1C (configuration not stated) | inactive |
| O=C(NCc1ccccc1)C1CCN(C(=O)Cc2ccccc2)CC1 | inactive |
| Cc1ccc2cc(C#N)c(NCCNC(=S)NCCCN3CCOCC3)nc2c1 | inactive |
| CC(c1ccccn1)N(CCN(C)C)C(=S)Nc1ccccc1F (configuration not stated) | inactive |
| CC(=O)N1CCCc2cc(S(=O)(=O)N3CCCC(C(=O)NCc4ccc(Cl)cc4)C3)ccc21 (configuration not stated) | inactive |

Lab note: next compound to report on.
## Input Name the outcome recorded for O=C(CSc1n[nH]c(-c2cccnc2)n1)Nc1ccnc2ccccc12 in the assay.
## Output inactive

====

Biological target: Nuclear receptor ROR-gamma (Mus musculus) (UniProt P51450)
Assay: qHTS for inhibitors of ROR gamma transcriptional activity; further: nearly all actives have a fitted effect of over 60% in size
Details: Drosophila S2 Gal4-RORgamma UAS-luciferase reporter, 20 h; series mostly up to 53.6 µM
Screen size: about 310,000 compounds; about 17,000 (5.5%) were called active. Roughly 11% stayed inconclusive and do not appear here. Calls come from the whole dose curve; as a rule, active = well fitted inhibition curve with a large enough effect; inconclusive = small, poorly fitted or top-dose-only effect, or effect the other way; inactive = no such curve, though single readings can be large or run the other way. For the sample, actives were picked, then their nearest neighbours and some compounds at random.
Write down the outcome that applies. Available outcomes: label 1 = active, label 0 = inactive

Worked examples follow.
| smiles-string | category |
| --- | --- |
| Cc1sc2ncn(CC(=O)NCCCC(=O)N(C)Cc3ccccc3)c(=O)c2c1C | label 0 |
| CC1CCN(C(=O)/C(=C\c2ccccc2)NC(=O)c2ccccc2)CC1 | label 0 |
| CC1CCN(C(=S)NC(=O)c2ccccc2Br)CC1 | label 1 |

Lab note: next molecule to report on.
## Input Name the outcome recorded for COc1ccc(OCCC(=O)c2ccc(OC)cc2)cc1 in the assay.
## Output label 0

====

Target: Nuclear receptor ROR-gamma (Mus musculus)
Experiment: qHTS for inhibitors of ROR gamma transcriptional activity; further: nearly all actives have a fitted effect of over 60% in size
Conditions: Drosophila S2 Gal4-RORgamma UAS-luciferase reporter, 20 h; series mostly up to 53.6 µM
Out of some 310,000 compounds screened, about 17,000 (5.5%) were called active. Not shown: some 11% with an inconclusive outcome. The call rests on the fitted dose curve; in most records, active means well fitted inhibition curve with a large enough effect; inconclusive means small, poorly fitted or top-dose-only effect, or effect the other way; inactive means no such curve, though single readings can be large or run the other way. Many of the other results were omitted from the sample, so actives are more common in it than they were.
Write down the outcome that applies. Available outcomes: active, inactive

| molecule | category |
| --- | --- |
| CC(NS(=O)(=O)c1ccccc1)c1n[nH]c(=S)n1-c1ccccc1 (centres undefined) | inactive |
| Cc1cccc(OCC(O)CN2CCN(S(=O)(=O)c3ccc(C)cc3C)CC2)c1 (centres undefined) | inactive |
| COc1cc(C)cc(CN2CCC(Cc3ccccc3)CC2)c1O | inactive |
| CCOc1ccc(-n2c(O)c(/C=N/Nc3nnc(C)c(=O)[nH]3)c3ccccc3c2=O)cc1 | inactive |
| CCc1nnc(NS(=O)(=O)c2ccc(N=Cc3c(C)[nH]n(-c4ccc(C)cc4)c3=O)cc2)s1 | inactive |
| COc1ccc(Cc2nnc(N/N=C/c3ccccc3O)[nH]c2=O)cc1OC | active |
| Cc1ccc(OCc2n[nH]c(=S)n2-c2ccccc2)cc1 | active |
| CCOC(=O)c1ccc(NC(=O)c2cccnc2)cc1 | inactive |

Lab note: next molecule to report on.
## Input Name the outcome recorded for Cc1ccc(NC(=O)Nc2ccccc2)c(Br)c1 in the assay.
## Output inactive

====

Biological target: Nuclear receptor ROR-gamma (Mus musculus)
Assay: qHTS for inhibitors of ROR gamma transcriptional activity; further: nearly all actives have a fitted effect of over 60% in size
Conditions: Drosophila S2 Gal4-RORgamma UAS-luciferase reporter, 20 h; series mostly up to 53.6 µM
About 17,000 (5.5%) of roughly 310,000 compounds were called active. Inconclusive results (about 11%) are left out. The call rests on the fitted dose curve; in most records, active means well fitted inhibition curve with a large enough effect; inconclusive means small, poorly fitted or top-dose-only effect, or effect the other way; inactive means no such curve, though single readings can be large or run the other way. Many of the other results were omitted from the sample, so actives are more common in it than they were.
Write down the outcome that applies. Available outcomes: y for active, n for inactive

| compound | category |
| --- | --- |
| O=S(=O)(NC1CCCC1)c1ccc(-n2cnnn2)cc1 | n |

## Input Name the outcome recorded for O=C(NC(=S)Nc1ccc(Cl)cc1Cl)C1CC1 in the assay.
## Output y

## Input What do we get for COc1cc(N=Cc2c(O)[nH]c3ccccc23)cc(OC)c1OC ?
## Output n

## Input What do we get for O=C1c2ccccc2S(=O)(=O)N1Cc1c(F)cccc1Cl ?
## Output n

## Input What do we get for COc1ccc(C2=NS(=O)(=O)N(C)C(C(=O)N(C)Cc3ccccc3)=C2)cc1 ?
## Output n

## Input What do we get for Cc1ccc(NC(=O)CSc2nnc(CNC(=O)c3ccccc3F)o2)cc1Cl ?
## Output n

## Input What do we get for COc1ccc(NC(=O)NCCN2CCN(c3ccc(C)cc3)CC2)c(Cl)c1 ?
## Output n

## Input What do we get for CC1C(=O)Nc2ccc(S(=O)(=O)N3CCN(c4ccccc4F)CC3)cc2NC1=O (stereo unspecified) ?
## Output n

## Input What do we get for COc1ccc(NC(=O)Nc2cccc3cccnc23)cc1 ?
## Output n

## Input What do we get for Cc1ccc2cc3cc(C(=O)N4CCCCCC4)oc3nc2c1 ?
## Output y

====

Target: Nuclear receptor ROR-gamma (Mus musculus) (UniProt P51450)
Assay: qHTS for inhibitors of ROR gamma transcriptional activity; further: nearly all actives have a fitted effect of over 60% in size
Settings: Drosophila S2 Gal4-RORgamma UAS-luciferase reporter, 20 h; series mostly up to 53.6 µM
Source text: NIH Molecular Libraries Probe Production Network [MLPCN] NIH Chemical Genomics Center [NCGC] […] Small molecule inhibitors of ROR gamma activity are detected by a decrease in luciferase reporter activity. […]
Hit rate of the full screen: of about 310,000 compounds, about 17,000 (5.5%) were called active. Inconclusive results (about 11%) are left out. Calls follow the shape of the dose curve; as a rule, active = well fitted inhibition curve with a large enough effect; inconclusive = small, poorly fitted or top-dose-only effect, or effect the other way; inactive = no such curve, though single readings can be large or run the other way. The list comes from a sample in which actives are over-represented; it also holds close analogues and randomly drawn compounds.
Write down the outcome that applies. Available outcomes: active, inactive

| compound | measured-on | category |
| --- | --- | --- |
| CN1c2ccccc2-c2nc3ccccc3n2C1c1ccco1 (centres undefined) | Nuclear receptor ROR-gamma (Mus musculus) (UniProt P51450) | active |
| Cc1cc(C)n(-c2ccc(NC(=O)C3CCCCN3C(=O)c3cccs3)cc2)n1 (centres undefined) | Nuclear receptor ROR-gamma (Mus musculus) (UniProt P51450) | inactive |
| Cn1nccc1NC(=O)Nc1ccc(OC(F)(F)F)cc1 | Nuclear receptor ROR-gamma (Mus musculus) (UniProt P51450) | inactive |
| COc1ccc(-c2nnc(SCC(=O)c3cccs3)o2)c(OC)c1 | Nuclear receptor ROR-gamma (Mus musculus) (UniProt P51450) | inactive |
| O=C(Cn1ncc2c3ccccc3n(Cc3ccccc3)c2c1=O)NCCCN1CCOCC1 | Nuclear receptor ROR-gamma (Mus musculus) (UniProt P51450) | inactive |
| CCn1cc(CCC(=O)NCc2ccc(F)cc2)c2ccccc21 | Nuclear receptor ROR-gamma (Mus musculus) (UniProt P51450) | inactive |
| COCCn1cnc2c1c(=O)n(Cc1ccc(Br)cc1)c(=O)n2Cc1ccccc1 | Nuclear receptor ROR-gamma (Mus musculus) (UniProt P51450) | inactive |
| O=C(NCCCc1ccccc1)C1CCC(=O)N(CCc2ccc(Cl)cc2)C1 (centres undefined) | Nuclear receptor ROR-gamma (Mus musculus) (UniProt P51450) | inactive |
| O=C(NCc1ccccc1)C(c1ccco1)N(C(=O)c1csnn1)c1ccccc1F (centres undefined) | Nuclear receptor ROR-gamma (Mus musculus) (UniProt P51450) | inactive |
| C#CCOc1ccccc1/C=C1/C(=O)ON=C1C | Nuclear receptor ROR-gamma (Mus musculus) (UniProt P51450) | inactive |

## Input Name the outcome recorded for Nc1nc(Nc2ccccc2F)nc(NC2CCCCC2)c1[N+](=O)[O-] in the assay.
## Output inactive

## Input What do we get for CC(C)CNC(=S)NC(=O)c1ccc(Cl)cc1 ?
## Output active
